Test system: U2OS
test.summary: Multiplex assay against U2OS
Type: toxicity, cell-based
experimental.conditions: human, 48 h, 1 µM, compound concentration 1 uM, replicate 1
Readings of Population Apoptotic (%) for the listed compounds

Worked set:
Cc1c(CC(=O)O)c2cccnc2n1Cc1ccc(S(C)(=O)=O)cc1C(F)(F)F; 65%
CCCCC1=NC2(CCCC2)C(=O)N1Cc1ccc(-c2ccccc2-c2nnn[nH]2)cc1; 97%
Cc1sc2c(c1C)C(c1ccc(Cl)cc1)=N[C@@H](CC(=O)NCCCCCCCCNC(=O)COc1cccc3c1C(=O)N(C1CCC(=O)NC1=O)C3=O)c1nnc(C)n1-2 (some centres not stated); 91%

Observed Population Apoptotic (%), U2OS, CCc1cc2cc(NS(=O)(=O)c3ccc(C#N)cc3)ccc2n(CC)c1=O : 89%

Observed Population Apoptotic (%), U2OS, CCCCCC(O)/C=C/[C@H]1C(=O)CC(O)C1C/C=C\CCCC(=O)O (some centres not stated) : 89%

Observed Population Apoptotic (%), U2OS, Cl.NCCc1ccc(O)c(O)c1 [DOPAMINE HYDROCHLORIDE] : 90%

Observed Population Apoptotic (%), U2OS, CCCCC(=O)N(Cc1ccc(-c2ccccc2-c2nnn[nH]2)cc1)[C@H](C(=O)O)C(C)C : 86%

Observed Population Apoptotic (%), U2OS, CN1CCN(c2cc(-c3ccccc3)nc(N)n2)CC1 : 83%

Observed Population Apoptotic (%), U2OS, CN(C)C(=O)Cn1cc(-c2ccc(-c3cncc4ccccc34)cc2)cn1 : 87%

Observed Population Apoptotic (%), U2OS, Cc1noc(-c2ccc(-c3ccc(CC(=O)O)cc3)cc2)c1NC(=O)O[C@H](C)c1ccccc1Cl : 97%

Observed Population Apoptotic (%), U2OS, COc1ccccc1N1CCN(C[C@@H](C(=O)NC(C)(C)C)c2ccccc2)CC1.Cl.Cl : 78%

Observed Population Apoptotic (%), U2OS, CN[C@@H](C)C(=O)N[C@H](C(=O)N1CCC[C@H]1C(=O)Nc1snnc1-c1ccccc1)C1CCCCC1 : 93%

Observed Population Apoptotic (%), U2OS, COC[C@@H](c1ccc(C(F)(F)F)cc1)N1CCN(C2(C)CCN(C(=O)c3c(C)ncnc3C)CC2)C[C@@H]1C.O=C(O)/C=C\C(=O)O [VICRIVIROC MALEATE] : 78%

Observed Population Apoptotic (%), U2OS, CC[C@@H](C)Nc1nc(C)nc2c(-c3ccc(OC)nc3C)c(C)nn12 : 88%

Observed Population Apoptotic (%), U2OS, O=C1[C@H](Cc2ccc(O)cc2)N2C(=O)CCN(C(=O)NCc3ccccc3)[C@H]2CN1Cc1cccc2ccccc12 : 81%

Observed Population Apoptotic (%), U2OS, CC(/C=C1\SC(=S)N(CCCC(=O)Nc2ccc(C(=O)O)c(O)c2)C1=O)=C\c1ccccc1 : 93%

Observed Population Apoptotic (%), U2OS, CC(C)COc1ccc(CNC(=O)N(Cc2ccc(F)cc2)C2CCN(C)CC2)cc1 : 87%

###

Tested on: HEK-293T
test.summary: Multiplex assay against HEK293T
Type: toxicity, cell-based
experimental.conditions: human, 12 h, 10 µM, compound concentration 10 uM, replicate 1
Readings of Population Mitochondria Different-Phenotype (%) for the listed molecules
Number first, unit second: that is the form wanted.

CC(C)c1noc(N2CCC(COc3ccc(-c4ccc(S(C)(=O)=O)cc4)nc3)CC2)n1; 69%
COc1ccccc1N1CCN(C[C@@H](C(=O)NC(C)(C)C)c2ccccc2)CC1.Cl.Cl; 88%
CC[C@@H](C)Nc1nc(C)nc2c(-c3ccc(OC)nc3C)c(C)nn12; 59%

Field Population Mitochondria Different-Phenotype (%) (entry CC(C)COc1ccc(CNC(=O)N(Cc2ccc(F)cc2)C2CCN(C)CC2)cc1 ) reads 89%

###

Tested on: U2OS
test.summary: Multiplex assay against U2OS
Type: toxicity, cell-based
experimental.conditions: human, 12 h, 10 µM, compound concentration 10 uM, replicate 1
Label met when Population Mitotic Cells (%) >= 20%; otherwise not met.

NCCc1cn(S(=O)(=O)c2c(Cl)nc3sccn23)c2ccccc12.O=C(O)C(=O)O; met
Cc1sc2c(c1C)C(c1ccc(Cl)cc1)=N[C@@H](CC(=O)NCCCCCCCCNC(=O)COc1cccc3c1C(=O)N(C1CCC(=O)NC1=O)C3=O)c1nnc(C)n1-2 (stereo partly drawn); not met
CN1CCN(c2cc(-c3ccccc3)nc(N)n2)CC1; not met

Query block: Quick check, Population Mitotic Cells (%) >= 20%? CCCCC1=NC2(CCCC2)C(=O)N1Cc1ccc(-c2ccccc2-c2nnn[nH]2)cc1
Result block: not met

Query block: Quick check, Population Mitotic Cells (%) >= 20%? C[C@H](N)COC(=O)[C@@H](CCCCN)NC(=O)Cc1c(-c2ccc3ccccc3c2)[nH]c2c1ccc1ccccc12
Result block: met

###

Readings of Population Pyknosed Nuclei (%) for the listed molecules
System: HEK-293T
test.summary: Multiplex assay against HEK293T
Type: toxicity, cell-based
experimental.conditions: human, 24 h, 1 µM, compound concentration 1 uM, replicate 1
Value expressed in %; do not type the unit.

Worked set:
C[C@H](N)COC(=O)[C@@H](CCCCN)NC(=O)Cc1c(-c2ccc3ccccc3c2)[nH]c2c1ccc1ccccc12; 12
Cc1cccc(NC(=O)CN2CCC(c3ccccn3)CC2)c1.Cl.Cl; 9
Cc1noc(-c2ccc(-c3ccc(CC(=O)O)cc3)cc2)c1NC(=O)O[C@H](C)c1ccccc1Cl; 9

Field Population Pyknosed Nuclei (%) (entry CC(/C=C1\SC(=S)N(CCCC(=O)Nc2ccc(C(=O)O)c(O)c2)C1=O)=C\c1ccccc1 ) reads 10

Field Population Pyknosed Nuclei (%) (entry Br.CS(=O)(=O)Nc1c(O)ccc2c1CCCC2C1=NCCN1 (centres undefined) ) reads 10

Field Population Pyknosed Nuclei (%) (entry CC(C)(C)c1cc(NC(=O)Nc2ccc(-c3cn4c(n3)sc3cc(OCCN5CCOCC5)ccc34)cc2)no1 [QUIZARTINIB] ) reads 7

Field Population Pyknosed Nuclei (%) (entry CCCOc1ccc2[nH]cc(C3=CCNCC3)c2n1.Cl ) reads 12

Field Population Pyknosed Nuclei (%) (entry O=C(CCCc1ccccc1)Nc1nc2ccccc2c(=O)s1 ) reads 10

Field Population Pyknosed Nuclei (%) (entry Cc1onc(-c2ccccc2Cl)c1C(=O)N(C)c1ccc(Cl)cc1 ) reads 9

###

Readings of Population Normal (%) for the listed compounds
Tested on: HEK-293T
test.summary: Multiplex assay against HEK293T
Format: toxicity, cell-based
experimental.conditions: human, 48 h, 10 µM, compound concentration 10 uM, replicate 1
Value expressed in %; do not type the unit.

CN(C)C(=O)Cn1cc(-c2ccc(-c3cncc4ccccc34)cc2)cn1; 88
Cc1noc(-c2ccc(-c3ccc(CC(=O)O)cc3)cc2)c1NC(=O)O[C@H](C)c1ccccc1Cl; 93
C[C@H](N)COC(=O)[C@@H](CCCCN)NC(=O)Cc1c(-c2ccc3ccccc3c2)[nH]c2c1ccc1ccccc12; 93
CN[C@@H](C)C(=O)N[C@H](C(=O)N1CCC[C@H]1C(=O)Nc1snnc1-c1ccccc1)C1CCCCC1 [GDC-0152]; 83
CCc1cc2cc(NS(=O)(=O)c3ccc(C#N)cc3)ccc2n(CC)c1=O; 95
CCCOc1ccc2[nH]cc(C3=CCNCC3)c2n1.Cl; 93
CCCCC1=NC2(CCCC2)C(=O)N1Cc1ccc(-c2ccccc2-c2nnn[nH]2)cc1 [IRBESARTAN]; 98
Cc1onc(-c2ccccc2Cl)c1C(=O)N(C)c1ccc(Cl)cc1; 96

Field Population Normal (%) (entry N#Cc1cc(F)cc(-c2nc(-c3ccc(F)cn3)no2)c1 ) reads 98

###

Tested on: U2OS
test.summary: Multiplex assay against U2OS
Type: toxicity, cell-based
experimental.conditions: human, 12 h, 10 µM, compound concentration 10 uM, replicate 2
metric: Population Hoechst High Intensity Objects (%)
Value expressed in %; do not type the unit.

Worked set:
Cc1c(CC(=O)O)c2cccnc2n1Cc1ccc(S(C)(=O)=O)cc1C(F)(F)F; 0
CC(C)(C)c1cc(NC(=O)Nc2ccc(-c3cn4c(n3)sc3cc(OCCN5CCOCC5)ccc34)cc2)no1; 6
NCCc1cn(S(=O)(=O)c2c(Cl)nc3sccn23)c2ccccc12.O=C(O)C(=O)O; 4
CC(/C=C1\SC(=S)N(CCCC(=O)Nc2ccc(C(=O)O)c(O)c2)C1=O)=C\c1ccccc1; 0
O=C(CCCc1ccccc1)Nc1nc2ccccc2c(=O)s1; 4
O=C(NCCN1CCC(n2c(=O)[nH]c3cc(Cl)ccc32)CC1)c1ccc(F)cc1 [HALOPEMIDE]; 1

Field Population Hoechst High Intensity Objects (%) (entry C[C@H](N)COC(=O)[C@@H](CCCCN)NC(=O)Cc1c(-c2ccc3ccccc3c2)[nH]c2c1ccc1ccccc12 ) reads 0

Field Population Hoechst High Intensity Objects (%) (entry COc1ccccc1N1CCN(C[C@@H](C(=O)NC(C)(C)C)c2ccccc2)CC1.Cl.Cl ) reads 0

Field Population Hoechst High Intensity Objects (%) (entry COC[C@@H](c1ccc(C(F)(F)F)cc1)N1CCN(C2(C)CCN(C(=O)c3c(C)ncnc3C)CC2)C[C@@H]1C.O=C(O)/C=C\C(=O)O [VICRIVIROC MALEATE] ) reads 2

Field Population Hoechst High Intensity Objects (%) (entry CC(=O)Nc1cccc2c1c(Sc1ccc(Cl)cc1)c(C)n2CC(=O)O ) reads 3

Cited source for all entries: ChEMBL document CHEMBL5058577
